The origin of these recorded values is the supplement of paper PMC13380429.

- Test system: U2OS
- assay overview: cell viability relative to DMSO; higher = less toxic
- assay conditions: 72 h; 1000 nM
experimental readout: cell viability (%)
The answer is to be given in %; state only the numeric part.

Q: For the compound C=CC(=O)Nc1cccc(Oc2nc(Nc3ccc(N4CCN(C)CC4)cc3)nc3ccsc23)c1 , what cell viability is on record?
Ans: 92.7

Q: Lookup CC(=O)O[C@@]12CO[C@@H]1C[C@H](O)[C@@]1(C)C(=O)[C@H](O)C3=C(C)[C@@H](O)C[C@@](O)([C@@H](OC(=O)c4ccccc4)[C@H]21)C3(C)C
Ans: 102

Further cases:
Q: Fill blank: measured cell viability of the compound CNC(=O)c1ccccc1Nc1nc(Nc2ccc(N3CCOCC3)cc2OC)ncc1Cl is ____.
Ans: 69

Q: Please do the same for COc1ccc(CC(C)NCC(O)c2ccc(O)c(NC=O)c2)cc1 (stereo unspecified) as well.
Ans: 105

Q: Try Nc1cc(C(F)(F)F)c(-c2cc(N3CCOCC3)nc(N3CCOCC3)n2)cn1 next.
Ans: 79.4

###

- Test system: U2OS
- assay overview: drug sensitivity score (DSS) for viability; higher = more toxic; extreme values may be limits of the assay
- assay conditions: 72 h
experimental readout: drug sensitivity score
Output: the number by itself.

Sample records with drug sensitivity score:
Q: Record lookup: for U2OS, what drug sensitivity score belongs to O=C1O[C@H]([C@@H](O)CO)C([O-])=C1O.[Na+] [sodium-ascorbate] ?
Ans: 0

Q: Request: Clc1ccc(C(Cn2ccnc2)OCc2csc3c(Cl)cccc23)c(Cl)c1 (stereo unspecified)
Ans: 0

Q: Quick one: COC(=O)/C=C/C(=O)N[C@@H]1CC[C@@]2(O)[C@H]3Cc4ccc(O)c5c4[C@@]2(CCN3CC2CC2)[C@H]1O5
Ans: 0

Q: Queued: CC#CCOC(=O)c1c(C)nc2sc3c(c2c1N)CCC(O)C3 (stereo unspecified)
Ans: 0

Q: What about CO/N=C(\C(=O)N[C@@H]1C(=O)N2C(C(=O)[O-])=C(C[N+]3(C)CCCC3)CS[C@H]12)c1csc(N)n1 [cefepime] ?
Ans: 0

New cases:
Q: Can you look up drug sensitivity score on U2OS for CN1C(=O)C(F)=C[C@]2(C)[C@H]3CC[C@]4(C)[C@@H](C(=O)NCc5nc6cccnc6[nH]5)CC[C@H]4[C@@H]3CC[C@@H]12 ?
Ans: 0

Q: Follow-up entry: CN1CCC(=C2c3ccccc3C=Cc3ccccc32)CC1
Ans: 0

Q: What do you have for CN(C)C(=O)c1ccc(S(=O)(=O)c2ccc(NC(=O)[C@@](C)(O)C(F)(F)F)c(Cl)c2)cc1 ?
Ans: 0.1

Q: Try Fc1ccc2nc(CCC#Cc3ccccn3)cn2c1 next.
Ans: 0

Q: Could you do the same for Cc1ccccc1-c1cc(N2CCN(C)CC2)ncc1N(C)C(=O)C(C)(C)c1cc(C(F)(F)F)cc(C(F)(F)F)c1 , please?
Ans: 0

Q: Next: C[C@]12C/C(=C/O)C(=O)C[C@@H]1CC[C@@H]1[C@@H]2CC[C@@]2(C)[C@H]1CC[C@]2(C)O
Ans: 0

Q: Same question for CC(C)Cc1ccc(C(C)C(=O)NO)cc1 (stereo unspecified) please.
Ans: 0

###

- System: Caco-2
- assay overview: drug sensitivity score (DSS) for viability; higher = more toxic; extreme values may be limits of the assay
- assay conditions: 72 h
experimental readout: drug sensitivity score
Lab note: record just the number, no unit beside it.

Illustrative cases are given below, each with its answer.
Q: Endpoint output: drug sensitivity score of CC1(C)CC[C@]2(C(=O)O)CC[C@]3(C)[C@H](C(=O)C=C4[C@@]5(C)C=C(C#N)C(=O)C(C)(C)[C@@H]5CC[C@]43C)[C@@H]2C1 . Value?
Ans: 5.3

Q: Field entry: Cn1cc(-c2ccc3c(c2)CCN3C(=O)Cc2cccc(C(F)(F)F)c2)c2c(N)ncnc21
Ans: 4.7

Q: Entry c1ccc(C(NCc2cccnc2)(c2ccccc2)c2ccccc2)cc1 please
Ans: 0

Q: Similarly, CCOc1cc(/C=C2/C(=O)N(c3ccccc3)N=C2C)cc(Cl)c1OCC(=O)OC ?
Ans: 0

With those in mind, consider the next molecule.
Q: // drug sensitivity score lookup, key: C=CCCCCCCCCC(=O)[O][Zn][O]C(=O)CCCCCCCCC=C [zinc-undecylenate]
Ans: 0.3
